Ref: patent US12370139B2

# EXPERIMENTAL PROTOCOL: Example 2: repeat of the Example 1 study, with edaravone metabolites in plasma
# Assay type: in vivo, human
# RUN CONDITIONS: both sexes, human, plasma, iv; Example 2, i.v. infusion (60 mg), 6 hrs
QUANTITY: concentration at 6 h

**Q:** Endpoint output: concentration at 6 h of CC1=NN(c2ccccc2)C(=O)C1 [Edaravone, 3-methyl-1-phenyl-2-pyrazolin-5-one] . Value?
**A:** 13 ng/mL

---

# EXPERIMENTAL PROTOCOL: Example 2: repeat of the Example 1 study, with edaravone metabolites in plasma
# Format: in vivo, human
# RUN CONDITIONS: both sexes, human, plasma, iv; Example 2, i.v. infusion (60 mg), 4 hrs
QUANTITY: concentration at 4 h (ng/mL)
// note: answer is a bare numeric in ng/mL

**Q:** GET /values?readout=concentration at 4 h&item= CC1=NN(c2ccccc2)C(=O)C1
**A:** 36

---

# EXPERIMENTAL PROTOCOL: Example 2: repeat of the Example 1 study, with edaravone metabolites in plasma
# Type: in vivo, human
# RUN CONDITIONS: both sexes, human, plasma, 140 mg; Example 2, oral compared to i.v. infusion; read-out: systemic bioavailability (Fabs)
QUANTITY: bioavailability (%)
Reply numerically in %, unit not repeated.

**Q:** # lookup: bioavailability of CC1=NN(c2ccccc2)C(=O)C1
**A:** 93

---

# EXPERIMENTAL PROTOCOL: Example 2: repeat of the Example 1 study, with edaravone metabolites in plasma
# Type: in vivo, human
# RUN CONDITIONS: both sexes, human, plasma; Example 2, oral administration (140 mg), 1 hrs
QUANTITY: concentration at 1 hrs (ng/mL)
Response body: numeric value in ng/mL, unit text excluded.

**Q:** Look up concentration at 1 hrs: CC1=NN(c2ccccc2)C(=O)C1
**A:** 762

---

# EXPERIMENTAL PROTOCOL: Example 2: repeat of the Example 1 study, with edaravone metabolites in plasma
# Type: in vivo, human
# RUN CONDITIONS: both sexes, human, plasma; Example 2, oral administration 140 mg
QUANTITY: AUC(0-t) (ng·h/mL)
Just the number in ng·h/mL, nothing appended.

**Q:** I'd like to know its AUC(0-t). The compound in question is CC1=NN(c2ccccc2)C(=O)C1
**A:** 2560

---

# EXPERIMENTAL PROTOCOL: Example 2: repeat of the Example 1 study, with edaravone metabolites in plasma
# Assay type: in vivo, human
# RUN CONDITIONS: both sexes, human, plasma; Example 2, oral administration (140 mg), 10 hrs
QUANTITY: concentration at 10 h
Dear colleague, please send the value followed by its unit.

**Q:** # input compound: CC1=NN(c2ccccc2)C(=O)C1 ; wanted: its concentration at 10 h
**A:** 8 ng/mL

---

# EXPERIMENTAL PROTOCOL: Example 2: repeat of the Example 1 study, with edaravone metabolites in plasma
# Assay type: in vivo, human
# RUN CONDITIONS: both sexes, human, plasma; Example 2, oral administration (140 mg), 2 hrs
QUANTITY: concentration at 2 hrs
Report the figure along with its unit, number first.

**Q:** Suppose we examine the molecule CC1=NN(c2ccccc2)C(=O)C1 [Edaravone, 3-methyl-1-phenyl-2-pyrazolin-5-one] ; what concentration at 2 hrs value has been reported?
**A:** 228 ng/mL

---

# EXPERIMENTAL PROTOCOL: Example 2: repeat of the Example 1 study, with edaravone metabolites in plasma
# Type: in vivo, human
# RUN CONDITIONS: both sexes, human, plasma; Example 2, oral administration (140 mg), 4 hrs
# From the text: The study described in Example 1 was repeated, again using 18 healthy male and female human subjects.
QUANTITY: concentration at 4 h (ng/mL)
Value expressed in ng/mL; do not type the unit.

**Q:** Look up concentration at 4 h for this compound: CC1=NN(c2ccccc2)C(=O)C1
**A:** 63

---

# EXPERIMENTAL PROTOCOL: Example 2: repeat of the Example 1 study, with edaravone metabolites in plasma
# Assay type: in vivo, human
# RUN CONDITIONS: both sexes, human, plasma, iv; Example 2, i.v. infusion (60 mg), 1 hrs
QUANTITY: concentration at 1 hrs (ng/mL)
# value in ng/mL; strip the unit string

**Q:** Using the record for CC1=NN(c2ccccc2)C(=O)C1 [Edaravone, 3-methyl-1-phenyl-2-pyrazolin-5-one] , report its concentration at 1 hrs.
**A:** 943

---

# EXPERIMENTAL PROTOCOL: Example 2: repeat of the Example 1 study, with edaravone metabolites in plasma
# Format: in vivo, human
# RUN CONDITIONS: both sexes, human, plasma; Example 2, oral administration (140 mg), 0.5 hrs
QUANTITY: concentration at 0.5 hrs (ng/mL)
Field format: number, assumed ng/mL, no unit text.

**Q:** May I ask what concentration at 0.5 hrs has been recorded for CC1=NN(c2ccccc2)C(=O)C1 ?
**A:** 2000

---

# EXPERIMENTAL PROTOCOL: Example 2: repeat of the Example 1 study, with edaravone metabolites in plasma
# Type: in vivo, human
# RUN CONDITIONS: both sexes, human, plasma, iv; Example 2, i.v. infusion (60 mg), 0.17 hrs
QUANTITY: concentration at 0.17 h

**Q:** Please look up its concentration at 0.17 h: CC1=NN(c2ccccc2)C(=O)C1 [Edaravone, 3-methyl-1-phenyl-2-pyrazolin-5-one]
**A:** 373 ng/mL

---

# EXPERIMENTAL PROTOCOL: Example 2: repeat of the Example 1 study, with edaravone metabolites in plasma
# Type: in vivo, human
# RUN CONDITIONS: both sexes, human, plasma; Example 2, oral administration (140 mg), 8 hrs
# Source text: The study described in Example 1 was repeated, again using 18 healthy male and female human subjects.
QUANTITY: concentration at 8 h (ng/mL)
Answer in ng/mL, number only, no unit symbol.

**Q:** Recorded concentration at 8 h of CC1=NN(c2ccccc2)C(=O)C1 [Edaravone, 3-methyl-1-phenyl-2-pyrazolin-5-one] , please.
**A:** 13

---

# EXPERIMENTAL PROTOCOL: Example 2: repeat of the Example 1 study, with edaravone metabolites in plasma
# Type: in vivo, human
# RUN CONDITIONS: both sexes, human, plasma, iv; Example 2, i.v. infusion 60 mg
QUANTITY: Cmax (ng/mL)
State just the number; it will be interpreted in ng/mL.

**Q:** What value of Cmax has been reported for the following compound? CC1=NN(c2ccccc2)C(=O)C1
**A:** 943

---

# EXPERIMENTAL PROTOCOL: Example 2: repeat of the Example 1 study, with edaravone metabolites in plasma
# Format: in vivo, human
# RUN CONDITIONS: both sexes, human, plasma; Example 2, oral administration 140 mg
QUANTITY: Cmax (ng/mL)
Form entry: value (ng/mL) — number only.

**Q:** I have this molecule here, CC1=NN(c2ccccc2)C(=O)C1 , and I need its recorded Cmax.
**A:** 3530

---

# EXPERIMENTAL PROTOCOL: Example 2: repeat of the Example 1 study, with edaravone metabolites in plasma
# Assay type: in vivo, human
# RUN CONDITIONS: both sexes, human, plasma; Example 2, oral administration (140 mg), 0.25 hrs
# Excerpt: The study described in Example 1 was repeated, again using 18 healthy male and female human subjects.
QUANTITY: concentration at […] (ng/mL)
Numbers only here, please. The scale is ng/mL.

**Q:** Request the reported concentration at […] associated with CC1=NN(c2ccccc2)C(=O)C1 [Edaravone, 3-methyl-1-phenyl-2-pyrazolin-5-one]
**A:** 3060

---

# EXPERIMENTAL PROTOCOL: Example 2: repeat of the Example 1 study, with edaravone metabolites in plasma
# Type: in vivo, human
# RUN CONDITIONS: both sexes, human, plasma; Example 2, oral administration 140 mg; extrapolated to infinity
QUANTITY: AUC(0-inf) (ng·h/mL)
Answer with a number only, understood to be in ng·h/mL.

**Q:** Request the reported AUC(0-inf) associated with CC1=NN(c2ccccc2)C(=O)C1
**A:** 2570

---

# EXPERIMENTAL PROTOCOL: Example 2: repeat of the Example 1 study, with edaravone metabolites in plasma
# Type: in vivo, human
# RUN CONDITIONS: both sexes, human, plasma; Example 2, oral administration (140 mg), 6 hrs
QUANTITY: concentration at 6 h (ng/mL)
# value in ng/mL; strip the unit string

**Q:** Data request, read-out concentration at 6 h, for CC1=NN(c2ccccc2)C(=O)C1
**A:** 24

---

# EXPERIMENTAL PROTOCOL: Example 2: repeat of the Example 1 study, with edaravone metabolites in plasma
# Type: in vivo, human
# RUN CONDITIONS: both sexes, human, plasma; Example 2, oral administration 140 mg
QUANTITY: Tmax (min)
# unit: min | format: bare number

**Q:** Can you look up the measured Tmax of CC1=NN(c2ccccc2)C(=O)C1 for me?
**A:** 13.8
